experiment-notes: gradient 5% acetonitrile 3 min, to 50% in 2 min, to 85% in 15 min, held 3 min, 100 µL/min
test-context: column: Zorbax Extend-C18 2.1 x 50 mm; eluents: water / acetonitrile, 0.1% formic acid
Documented RP-LC retention time across a set of compounds
The reply should be a number in s, with the unit left off.

Note down RP-LC retention time recorded for Cc1ccc(-c2[nH]ncc2CN2C[C@@H]3CCN(S(C)(=O)=O)C[C@]3(CF)C2)cc1C
617

Note down RP-LC retention time recorded for CC(=O)Nc1ccc(NC(=O)c2ccc3nc(-c4ccccc4)cn3c2)cc1
612

Note down RP-LC retention time recorded for CC(=O)NCc1nc(-c2ccc3c(c2)nc(C)c(=O)n3C2CCCC2)no1
707

Note down RP-LC retention time recorded for COc1ccccc1-c1csc(-c2nnn(-c3ccc(C)cc3)c2N)n1
1160

Note down RP-LC retention time recorded for CC1CCC(NC(=O)C(Cc2c[nH]c3ccccc23)NC(=O)C2CCC(C)CC2)CC1 (stereo not given)
1100

* * *

Documented RP-LC retention time across a set of molecules
experiment-notes: gradient 5% acetonitrile 3 min, to 50% in 2 min, to 85% in 15 min, held 3 min, 100 µL/min
test-context: column: Zorbax Extend-C18 2.1 x 50 mm; eluents: water / acetonitrile, 0.1% formic acid
Numeric answer plus unit only.

Note down RP-LC retention time recorded for CC(C)(CO)NCc1ccc(-c2ccc(Cl)cc2Cl)o1
685 s

Note down RP-LC retention time recorded for CCCn1nc(C)cc1CN(C)C(=O)Cn1nc2n(c1=O)CCC(N)CC2 (stereo not given)
561 s

Note down RP-LC retention time recorded for CCN1C(=O)COc2ccc(-c3noc(C4(c5ccccc5)CC4)n3)cc21
991 s

Note down RP-LC retention time recorded for O=C(CCc1nnc2c3cc(-c4ccc(F)cc4)nn3ccn12)NCCc1cccnc1
601 s

Note down RP-LC retention time recorded for COc1c(S(=O)(=O)Nc2cccnc2)ccc(Cl)c1Cl
649 s

Note down RP-LC retention time recorded for CN(CCc1noc(-c2ccccc2)n1)C(=O)Nc1ccc(F)c(Cl)c1
954 s

Note down RP-LC retention time recorded for Clc1ccc(-c2nc(-c3cccc(-c4ccn[nH]4)c3)no2)cc1
1090 s

Note down RP-LC retention time recorded for COc1ccc(C(=O)N(Cc2cc(OC)c(OC)c(OC)c2)C2CCS(=O)(=O)C2)cc1 (stereo not given)
749 s

* * *

experiment-notes: gradient 5% acetonitrile 3 min, to 50% in 2 min, to 85% in 15 min, held 3 min, 100 µL/min
test-context: column: Zorbax Extend-C18 2.1 x 50 mm; eluents: water / acetonitrile, 0.1% formic acid
Note to self: use Criterion met only for RP-LC retention time readings below 900 s; a reading exactly at 900 s still gets Criterion not met.

{"columns": ["compound", "classification"],
 "data": [
  ["CCOc1ccc(-c2nc(NC(=O)c3ccccc3[N+](=O)[O-])sc2C)cc1", "Criterion not met"]
]}

Input Cc1ccc(S(=O)(=O)N2C[C@H]3CN(C(=O)NCCc4ccccc4)C[C@@H](C2)O3)cc1 ; condition: RP-LC retention time strictly below 900 s. Does it hold?
Criterion met

Input CC1(C)CC(=O)C2=C(C1)Nc1ccccc1N(CC(=O)NC1CCCC1)C2c1ccc(F)cc1 (stereo not drawn) ; condition: RP-LC retention time strictly below 900 s. Does it hold?
Criterion met

Input Cc1ccc(CN2CCC(CNC(=O)c3noc(C)c3Cn3nc(C)cc3C)C2)cc1 (stereo not drawn) ; condition: RP-LC retention time strictly below 900 s. Does it hold?
Criterion met

Input O=C(Nc1ccc(F)cc1)N1CCCC1c1nc(-c2ccc(F)cc2F)no1 (stereo not drawn) ; condition: RP-LC retention time strictly below 900 s. Does it hold?
Criterion not met

Input O=C(COc1ccc(F)cc1)N1CCOc2ccc(N3CCOCC3)cc2C1 ; condition: RP-LC retention time strictly below 900 s. Does it hold?
Criterion met

Input COc1nc2ccccc2nc1N1CCCC(C(=O)N2CCN(c3ccccc3Cl)CC2)C1 (stereo not drawn) ; condition: RP-LC retention time strictly below 900 s. Does it hold?
Criterion not met

Input Cc1cc(C)cc(-n2c(CN3CCN(C(=O)Nc4ccc5c(c4)OCCO5)CC3)nc3cccnc32)c1 ; condition: RP-LC retention time strictly below 900 s. Does it hold?
Criterion met

Input Cc1oc(-c2ccc(OC(C)C)cc2)nc1CN(c1ccccc1)S(=O)(=O)c1cccs1 ; condition: RP-LC retention time strictly below 900 s. Does it hold?
Criterion not met

Input CCCN1C(=O)c2cc(S(=O)(=O)NCc3ccco3)ccc2Oc2cccnc21 ; condition: RP-LC retention time strictly below 900 s. Does it hold?
Criterion not met

Input Cc1ccc(C)c2c(=O)c3c([nH]c12)CCN(CC(=O)Nc1ccccc1F)C3 ; condition: RP-LC retention time strictly below 900 s. Does it hold?
Criterion met

Input O=C(Cc1nnc2cc(-c3nc(C4CC4)no3)ccn12)NCc1ccc(Cl)cc1 ; condition: RP-LC retention time strictly below 900 s. Does it hold?
Criterion met

Input CSc1cccc(NC(=O)Cn2cc(-c3ccccc3)c3ncn(C4CC4)c(=O)c32)c1 ; condition: RP-LC retention time strictly below 900 s. Does it hold?
Criterion not met

Input O=C(NCc1ccc2c(c1)OCO2)c1nnc(-c2ccc(S(=O)(=O)N3CCCC3)cc2)o1 ; condition: RP-LC retention time strictly below 900 s. Does it hold?
Criterion met

Input CC(C)n1c(=O)sc2cc(S(=O)(=O)N3CCC(C(=O)NC4CCCCC4)CC3)ccc21 ; condition: RP-LC retention time strictly below 900 s. Does it hold?
Criterion not met

Input CCN1C(=O)COc2ccc(-c3noc(/C=C/c4ccc(OC)cc4)n3)cc21 ; condition: RP-LC retention time strictly below 900 s. Does it hold?
Criterion not met

* * *

experiment-notes: gradient 5% acetonitrile 3 min, to 50% in 2 min, to 85% in 15 min, held 3 min, 100 µL/min
test-context: column: Zorbax Extend-C18 2.1 x 50 mm; eluents: water / acetonitrile, 0.1% formic acid
observation-type: RP-LC retention time (s)
The reply should be a number in s, with the unit left off.

Consider the reported RP-LC retention time for these compounds:
{"columns": ["compound", "RP-LC retention time (s)"],
 "data": [
  ["COc1ccc(NC(=O)N2CCC(n3cnc4cccnc43)CC2)cc1", 617],
  ["O=C1NCCN2CC3(CCN(C(=O)Nc4ccccc4F)CC3)CC12 (centres undefined)", 564],
  ["CCOc1ccc(Cc2nc(-c3ccc4c(c3)nc(C)c(=O)n4C)no2)cc1OCC", 970],
  ["Cc1cc(OCC(=O)N2CCC3(O)CCCCC3C2)c2c(C)c(C)c(=O)oc2c1 (centres undefined)", 798],
  ["CCN1C(=O)C2(CCN(S(=O)(=O)c3ccc(C)c(C)c3)CC2)c2ccccc21", 1130],
  ["Cn1nc(CNC(=O)c2cnccn2)c2ccccc21", 689],
  ["Cc1ccc2c(=O)c(C(=O)N3CCCCC3)cn(CC(=O)NC3CCCCC3)c2n1", 731],
  ["Cc1ccc(S(=O)(=O)NC(=O)NC2=NC(C)(C)N(c3ccc(Cl)c(Cl)c3)C(N)=N2)cc1", 733]
]}

Note down RP-LC retention time recorded for CCC(C)NC(=O)N1CCC2(CC1)Nc1cc(F)ccc1-n1cccc12 (centres undefined)
954

* * *

experiment-notes: gradient 5% acetonitrile 3 min, to 50% in 2 min, to 85% in 15 min, held 3 min, 100 µL/min
test-context: column: Zorbax Extend-C18 2.1 x 50 mm; eluents: water / acetonitrile, 0.1% formic acid
Note to self: use satisfied only for RP-LC retention time readings below 800 s; a reading exactly at 800 s still gets not satisfied.

Illustrative cases are given below, each with its answer.
{"columns": ["compound", "classification"],
 "data": [
  ["CCc1ccc(NC(=O)Cn2nc(N3CCSCC3)c3ccccc3c2=O)cc1", "not satisfied"],
  ["CCN(CC)CCNC(=O)c1cn(C)nc1S(=O)(=O)N1CCN(c2ccc(Cl)cc2)CC1", "satisfied"],
  ["COC(=O)c1cnc2nc(C)ccc2c1Nc1ccc(F)cc1F", "satisfied"]
]}

Now turn to the next compound.
Input COC(=O)c1ccc(C(=O)NCC2(O)CCOCC2)cc1 ; condition: RP-LC retention time strictly below 800 s. Does it hold?
satisfied

* * *

experiment-notes: gradient 5% acetonitrile 3 min, to 50% in 2 min, to 85% in 15 min, held 3 min, 100 µL/min
test-context: column: Zorbax Extend-C18 2.1 x 50 mm; eluents: water / acetonitrile, 0.1% formic acid
observation-type: RP-LC retention time (s)
The reply should be a number in s, with the unit left off.

{"columns": ["compound", "result-units", "RP-LC retention time"],
 "data": [
  ["Cn1nccc1C(=O)Nc1c(-c2cccc(F)c2)nc2sc(N3CCCCC3)nn12", "s", 882],
  ["COc1ccc(C(CNC(=O)c2cc(=O)c3ccccc3o2)N(C)C)cc1 (centres undefined)", "s", 607]
]}

Note down RP-LC retention time recorded for Fc1ccccc1-c1noc(-c2nc(C3CC3)no2)n1
1050

Note down RP-LC retention time recorded for CCCn1ccc2sc(C)c(C(=O)NCc3cccc(C)c3)c2c1=O
948

Note down RP-LC retention time recorded for COc1cccc(CNC(=O)NCCc2nc3cccnc3n2Cc2ccccc2)c1
723

Note down RP-LC retention time recorded for Fc1ccccc1N1CCN(Cc2nc(-c3ccc(N4CCCC4)nc3)no2)CC1
698

Note down RP-LC retention time recorded for CCCNC(=O)C1CCCN(c2nc3ncn(CC(=O)Nc4ccc(OCC)cc4)c(=O)c3s2)C1 (centres undefined)
720

Note down RP-LC retention time recorded for CN(C)CCNc1nc(-c2ccc(C(C)(C)C)cc2)nc2ccccc12
590

Note down RP-LC retention time recorded for CCN1CCCn2nc(C3CCN(S(=O)(=O)c4cnc[nH]4)CC3)cc2C1=O
592

// data source = the METLIN SMRT retention time set (Domingo-Almenara et al. 2019)
